These entries and their values trace back to PubChem BioAssay (NCI).

test system: NCI-H23 lung; test: NCI tumour cell line growth inhibition, 48 h
TGI values for the molecules below.

OCC(O)CNc1ncnc2ccccc12 (configuration not stated) | > 100 µM
Cc1[nH]c(=O)[nH]c(=O)c1/C=C/C(=O)NC(CO)CS(=O)CS(C)=O (configuration not stated) | 43.7 µM
CCc1n[nH]c(=O)n1/N=C(\C)c1ccc([N+](=O)[O-])cc1 | > 100 µM

The molecule CC(=O)Nc1ccc(-c2nnc(SCC(=O)Nc3cccc(Cl)c3)o2)cc1 on NCI-H23 lung: TGI was 23 µM

The molecule COc1ccc(C2CC(c3ccc(Nc4ccnc5cc(Cl)ccc45)cc3)=NN2C=O)cc1 (configuration not stated) on NCI-H23 lung: TGI was > 100 µM

The molecule Cn1cc(-c2nc(-c3c[nH]c4ncccc34)cs2)c2ccccc21 on NCI-H23 lung: TGI was > 100 µM

The molecule O=C(COc1cccc(/C=C2\CSc3ccc(Cl)cc3C2=O)c1)c1ccc(Cl)cc1 on NCI-H23 lung: TGI was 42.5 µM

The molecule CC(C)(C)c1ccc2c(c1)C#Cc1cc(C(C)(C)C)ccc1OCCCO2 on NCI-H23 lung: TGI was > 100 µM

The molecule O=C1OC(C2Cc3ccc4c(c3C2=O)CCC4)c2ccccc21 (configuration not stated) on NCI-H23 lung: TGI was > 100 µM

---

tested on: SF-268 CNS; experiment: NCI tumour cell line growth inhibition, 48 h
TGI values for the molecules below.

Cc1ccc(OCC2OC(n3cnc4nc(Nc5ccc(Cl)c(Cl)c5)nc(Cl)c43)CC2Oc2ccc(C)cc2)cc1 (centres undefined) | > 100 µM

Turning now to a further record.
GET /value?item= CCOC(=O)CC1(Cc2ccc(OCc3ccccc3)cc2)C(=O)OC(c2ccccc2)N1C(=O)c1ccccc1 (centres undefined) &field=TGI returns > 100 µM

---

system: TK-10 renal; assay: NCI tumour cell line growth inhibition, 48 h
measure: GI50

GET /value?item= O=C(O)c1cc(=O)cc(C(=O)O)o1 &field=GI50 returns > 100 µM

GET /value?item= COc1ccc(C2CC(c3ccc(Nc4ccnc5cc(Cl)ccc45)cc3)=NN2C=O)cc1 (centres undefined) &field=GI50 returns 20.9 µM

GET /value?item= CC(C)[C@@](O)(c1ccc2cc(OC(F)F)c(OC(F)F)cc2c1)c1cn[nH]n1 &field=GI50 returns 14.9 µM

GET /value?item= O=C1C(=C([O-])c2ccccc2)C(=O)c2ccccc21.O=C1C(=C([O-])c2ccccc2)C(=O)c2ccccc21.[Mn+2] &field=GI50 returns > 100 µM

GET /value?item= CCOC(=O)C1=C(C)NC(=O)NC1CN1C(=O)c2ccccc2C1=O (centres undefined) &field=GI50 returns > 100 µM

GET /value?item= Cc1ccc2cccc(OC(=O)Nc3cccc(C(F)(F)F)c3)c2n1 &field=GI50 returns 3.87 µM

GET /value?item= O=c1c2ccccc2c(/C=N\NC2=NCCN2)c2oc3ccccc3n12 &field=GI50 returns 16.3 µM

GET /value?item= COc1ccc(C(=NN=C(N)N)c2ccc(OC)cc2)cc1 &field=GI50 returns 4.26 µM

---

test system: RXF 393 renal; assay: NCI tumour cell line growth inhibition, 48 h
measure: GI50

Please review the following examples before continuing.
COc1cc(/C=C2\CCC/C(=C\c3ccc(O)c(OC)c3)C2=O)ccc1O | 1.43 µM
N#CC(C#N)=C1CCOc2ccc(F)cc21 | 17.4 µM
O=C(C=P(c1ccccc1)(c1ccccc1)c1ccccc1)CCl | 1.01 µM
O=C(COc1cccc(/C=C2\CSc3ccc(Cl)cc3C2=O)c1)c1ccc(Cl)cc1 | 14.1 µM
Clc1cc(Cl)c(OCCCCCCN2CCNCC2)c(Cl)c1 | 1.7 µM

Turning now to a further record.
GET /value?item= O=c1c2ccccc2c(/C=N\NC2=NCCN2)c2oc3ccccc3n12 &field=GI50 returns 21.4 µM

---

system: U251 CNS; assay: NCI tumour cell line growth inhibition, 48 h
TGI values for the compounds below.

Please review the following examples before continuing.
CCC/C(Cl)=N/OC(=O)Nc1cc(C(F)(F)F)ccc1OC | 31.6 µM
CCOC(=O)Cc1nnc2n(-c3ccccc3)c(=O)c3ccccc3n12 | > 100 µM
C/C=C/C=C\C=C/C(O)C(C)C(CCC(C)C1OC(=O)C=CC1C)OP(=O)(O)O (stereo unspecified) | 2.5 µM
NC(CCOCCP(=O)(O)CCC1C=CC=CC1)C(=O)O (stereo unspecified) | > 100 µM
COc1cc(C2OC(N)=C(C#N)C3=C2C(C)CCC3)cc(OC)c1OC (stereo unspecified) | > 100 µM
COc1cc2c(c(O)c1OC)C(=O)[C@@H]1CCC(=O)N1C2c1ccccc1 (stereo partly specified) | > 100 µM

GET /value?item= O=C1Cc2nc(CO)c(CO)c(CO)c2CO1 &field=TGI returns > 100 µM

GET /value?item= Cc1cc(=O)oc2c(CNC(CO)C(=O)O)c(O)ccc12 (stereo unspecified) &field=TGI returns > 100 µM

GET /value?item= N#Cc1ccc(-c2nc3c(N)nc(-c4ccccc4)nc3o2)cc1 &field=TGI returns 27.7 µM

GET /value?item= O=C(Cc1ccccc1)NN1C(=O)/C(=C\c2cccc([N+](=O)[O-])c2)SC1=Nc1ccccc1 &field=TGI returns > 100 µM

GET /value?item= Oc1ccc2ccccc2c1N=Nc1cc(Cl)ccc1Cl &field=TGI returns 22 µM

---

system: SNB-75 CNS; test: NCI tumour cell line growth inhibition, 48 h
TGI values for the compounds below.
I only need the number, in µM, no unit after it.

CC(=O)O[C@H]1CC[C@H]2[C@@H]3CCC4=CC(=O)C=C[C@]4(O)[C@H]3CC[C@]12C | 61.3

GET /value?item= CSc1nn(C)cc2ncnc1-2 &field=TGI returns 64

GET /value?item= CC(C)[C@@](O)(c1ccc2cc(OC(F)F)c(OC(F)F)cc2c1)c1cn[nH]n1 &field=TGI returns 40.4

GET /value?item= COc1ccc(C(=O)c2c3cc(OC)c(OC)c(OC)c3cc[n+]2C)cc1 &field=TGI returns 95.7

GET /value?item= Cc1cc2c(c(O)c1-c1c(C)cc(O)c3c1C(=O)C=CC3=O)C(=O)C=CC2=O &field=TGI returns 84.9

---

test system: SF-295 CNS; experiment: NCI tumour cell line growth inhibition, 48 h
measure: TGI

Please review the following examples before continuing.
COc1cc(N2C(=O)[C@H](c3ccccc3)C2c2ccc(SC)cc2)cc(OC)c1OC (stereo not given in full) | 6.94 µM
COc1ccc(C2ON(c3ccccc3)CC=C2C)cc1 (stereo not given) | > 100 µM
CCOC(=O)CC1(Cc2ccc(OCc3ccccc3)cc2)C(=O)OC(c2ccccc2)N1C(=O)c1ccccc1 (stereo not given) | > 100 µM

GET /value?item= COc1cc2c(c(O)c1OC)C(=O)[C@@H]1CCC(=O)N1C2c1ccccc1 (stereo not given in full) &field=TGI returns > 100 µM

GET /value?item= Cc1c(/C=N/NC(=S)Nc2ccc(Cl)cc2)c(=O)n(-c2ccccc2)n1C &field=TGI returns 44.5 µM

GET /value?item= C[C@@H]1C(=O)O[C@H]1[C@H](O)CO &field=TGI returns > 100 µM

GET /value?item= COc1ccc2c(c1)-c1c(c3cc(OC)ccc3n1CCCN(C)C)CC2 &field=TGI returns 16.8 µM

GET /value?item= CC(=O)CC/C=C(\C)[C@H](O)[C@H](C)C(=O)O[C@H]1C[C@H](C)C=C2C=C[C@@]3(C)O[C@@H](O)CC(=O)[C@]3(C)[C@H]21 &field=TGI returns 6.51 µM

GET /value?item= O=C(OCCCl)C1OC(n2cc(F)c(=O)[nH]c2=O)CC1O (stereo not given) &field=TGI returns > 100 µM

GET /value?item= O=C(c1ccc(C(F)(F)F)c(Cl)c1)N(Cc1ccc(Cl)cc1)c1ccc(-c2cc(C(F)(F)F)[nH]n2)c(O)c1 &field=TGI returns 2.87 µM

GET /value?item= CNC1Cc2c[nH]c3cccc(c23)C12C=C(C)C(=O)O2 (stereo not given) &field=TGI returns > 100 µM

GET /value?item= CC(C)(C)c1ccc2c(c1)C#Cc1cc(C(C)(C)C)ccc1OCCCO2 &field=TGI returns > 100 µM

---

test system: RXF 393 renal; experiment: NCI tumour cell line growth inhibition, 48 h; in the data active = GI50 below about 0.43 µM; inactive = the rest
// classify into active, inactive

Example entries and their recorded answers appear below.
O=C(O)c1cc(=O)cc(C(=O)O)o1 | inactive
CN(C)CCCSc1ccccc1NC1=C(Cl)C(=O)C(Nc2ccccc2SCCCN(C)C)=C(Cl)C1=O | inactive
C#CC(=O)Nc1cccc2c1cc(C)n2-c1nc2c(c(NCc3ccccc3)n1)CCCC2 | active

# lookup: test call for NC(=S)N/N=C1\c2ccccc2-c2c(F)c(F)c(F)c(F)c21
inactive

# lookup: test call for COc1cc(/C=C/c2cc(/C=C/c3ccc(O)c(OC)c3)n(C(=O)Nc3ccccc3Cl)n2)ccc1O
active

# lookup: test call for COc1ccc(NC2=C(I)C(=O)c3ncccc3C2=O)cc1
inactive

# lookup: test call for CCOc1ccc(/C=C/c2cc(OC)c(OC)c(OC)c2)cc1
inactive
